- System: AncSZ
- protocol: phosphorylation enrichment, bacterial display (enrichment ratio); higher = better substrate or ligand; peptides without Tyr show the background;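 note: 11-residue human phosphosite peptides and single-mutation variants displayed on the E. coli surface, counted by deep sequencing, each peptide's frequency after selection divided by its frequency in the unselected input library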;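 note: frequency after pTyr selection over input frequency; kinase dosed for 20-30% of maximal phosphorylation in three min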
// thresholds for phosphorylation enrichment classes: Low = under 0.7, Mid = from 0.7 up to 1, High = 1 and over

input: Categorize the following entry: ILTLKYPIERG [ACTA1_Y71_H75R]
output: Low

input: Exercise: read the entry YDGKDYIALNE [HLA-A_Y147] and state which class it falls under.
output: High

input: # classify by phosphorylation enrichment band: CPTIHYNYMCN [TP53_Y234_T230P]
output: Mid

input: Which class holds MRAIIYNSSTA [PLEKHA7_Y243_L241I] ?
output: Mid

input: Note: place this sequence into its band. Item: RGYRQYAYDGK [HLA-A_Y140_D140Y]
output: Low

input: Into which bin does this sequence go? RSRSPYSSRHS [CDK13_Y415]
output: Low

input: Lab log: DNEAIYDICRC [TUBA4A_Y210_R215C] — assign phosphorylation enrichment category
output: High

input: Bin this entry: EEQKKYYNAVK [SCN5A_Y1494_M1498V]
output: Low

input: Input PLFKIYVAELI [MRPL28_Y230] ; output its category
output: High

input: Class? Entry: QHVPDYRQNVF [PCDHGA1_Y890_YF]
output: Mid

input: Entry SHNELYFEAAE [VANGL1_Y344_E347A_YF] belongs to which category?
output: High

input: The entry to classify is ATDLAYFLVRK [ASL_Y375_YF] ; which class holds it?
output: High

====

- target: MERTK (UniProt Q12866)
- Sequence (Q12866 whole entry, looked up): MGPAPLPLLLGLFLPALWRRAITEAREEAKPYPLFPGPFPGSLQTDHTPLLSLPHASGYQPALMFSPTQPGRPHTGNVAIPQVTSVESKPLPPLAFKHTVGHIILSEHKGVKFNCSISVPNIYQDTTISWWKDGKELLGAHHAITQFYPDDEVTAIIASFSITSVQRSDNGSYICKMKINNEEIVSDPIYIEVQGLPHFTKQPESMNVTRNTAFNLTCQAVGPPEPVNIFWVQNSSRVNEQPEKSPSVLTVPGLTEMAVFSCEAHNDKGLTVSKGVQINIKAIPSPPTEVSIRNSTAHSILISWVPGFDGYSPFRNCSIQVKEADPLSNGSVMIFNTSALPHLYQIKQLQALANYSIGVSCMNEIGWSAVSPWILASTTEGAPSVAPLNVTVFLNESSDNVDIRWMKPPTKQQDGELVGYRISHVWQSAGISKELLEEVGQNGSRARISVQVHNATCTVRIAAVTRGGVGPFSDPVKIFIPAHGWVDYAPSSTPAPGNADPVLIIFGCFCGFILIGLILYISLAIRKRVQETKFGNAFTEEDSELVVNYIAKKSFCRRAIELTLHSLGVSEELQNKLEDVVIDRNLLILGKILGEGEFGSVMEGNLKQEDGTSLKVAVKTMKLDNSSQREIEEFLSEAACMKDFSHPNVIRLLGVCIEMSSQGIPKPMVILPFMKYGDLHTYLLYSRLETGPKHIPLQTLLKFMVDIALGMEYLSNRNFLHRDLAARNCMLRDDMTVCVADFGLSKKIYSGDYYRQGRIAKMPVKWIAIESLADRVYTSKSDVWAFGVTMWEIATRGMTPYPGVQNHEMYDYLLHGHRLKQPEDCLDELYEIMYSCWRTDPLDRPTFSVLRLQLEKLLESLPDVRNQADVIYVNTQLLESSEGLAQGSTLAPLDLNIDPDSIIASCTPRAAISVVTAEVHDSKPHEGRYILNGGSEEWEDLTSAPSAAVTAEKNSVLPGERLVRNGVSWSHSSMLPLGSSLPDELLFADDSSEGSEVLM
- protocol: phosphorylation enrichment, bacterial display (enrichment ratio); higher = better substrate or ligand; peptides without Tyr show the background
quantity name: phosphorylation enrichment
Output spec: single numeric token, no unit.

input: Give reported phosphorylation enrichment value for DTSKMYIPHTD [EXPH5_Y782]
output: 0.399

input: Look up and state reported phosphorylation enrichment for NIQKKYFRAIL [CHD7_Y1217_YF]
output: 0.458

input: Assign phosphorylation enrichment to the following record: KLFRVYCDMNT [FGB_Y269_P265L_YF]
output: 0.432

input: Supply reported phosphorylation enrichment belonging to this sequence: SVTCTSSPALN [TP53_Y126_Y126S]
output: 0.436

input: Respond only with phosphorylation enrichment recorded for YYSSEYHCVGG [CTSC_Y345_Y347C]
output: 8.36

input: Using known records, supply phosphorylation enrichment for NQDRTYFERVR [SPEN_Y632_S635R_YF]
output: 0.377

input: Complete the entry with phosphorylation enrichment for PPAPRYHDSAV [LZTR1_Y119_H121D]
output: 0.741

input: Indicate the recorded phosphorylation enrichment value for this sequence: ISRASYYRKGG [ALK_Y1282_Y1278S]
output: 0.576

input: State its phosphorylation enrichment for this sequence: PTATSYNPNLA [GABRA1_Y375_T376N]
output: 1.06

input: Supply measured phosphorylation enrichment of DRLASYLEKVR [KRT13_Y118] in your reply.
output: 0.424

input: Quick one: give measured phosphorylation enrichment for EKKDVYKAGEQ [CFH_Y1008]
output: 0.425

input: Please list phosphorylation enrichment recorded for the sequence KKKKQYKGKYL [CASK_Y708_D710G]
output: 0.629

input: State, in one line, measured phosphorylation enrichment of EYDRLYEEYTR [PIK3R1_Y467]
output: 2.8

input: Kindly indicate its recorded phosphorylation enrichment. Item: KGFCGYSFDDI [TMEM230_Y110_R108C_YF]
output: 0.471

input: Determine from records and report phosphorylation enrichment for LSNFNYEQRGA [API5_Y497_G493S]
output: 0.796

input: State its phosphorylation enrichment for this sequence: DFFDLYGGEKF [PTPN11_Y66_YF]
output: 0.441

input: Using the record for MECLPYGSLRD [JAK2_Y934_Y931C] , state its measured phosphorylation enrichment.
output: 0.409

input: Return phosphorylation enrichment (reported value) for this sequence: GKVADYIPQLP [GLS_Y249_A254P]
output: 0.455

input: Please indicate phosphorylation enrichment recorded for IRGNMYFENSF [EGFR_Y112_YF]
output: 0.536

input: Specify measured phosphorylation enrichment for SFLFHYADDSF [RAB3C_Y50_R49H] .
output: 0.412

input: Look up and report measured phosphorylation enrichment for this entry: KIDAKYKKKIE [WDR19_Y1230]
output: 0.418

input: Complete the entry with phosphorylation enrichment for PKDSAYVTWEP
output: 1.39

input: Fill in reported phosphorylation enrichment for this entry: HTEGEYSSLEH [IDH3B_Y171_Q166H]
output: 0.764

input: Hello, please tell me recorded phosphorylation enrichment for this one: EWLRRHLENGK [HLA-A_Y195_Y195H]
output: 0.34

input: Return reported phosphorylation enrichment. Input sequence: VILARYGPAWR [CYP2D6_Y124_F120I]
output: 0.482

input: Given PVEAAYQKVVA [HBB_Y131_Q128E] , respond with its phosphorylation enrichment.
output: 0.52

input: Return the recorded phosphorylation enrichment value; entry: NTPNAYLRVNV [ADD2_Y440_T439A]
output: 0.404

input: Query phosphorylation enrichment for VNKLVYENING [FRS2_Y306]
output: 1.64

input: Supply reported phosphorylation enrichment belonging to this sequence: MAYDRYVAICS [OR8D4_Y123_C120Y]
output: 0.77
